pKd by entry:
ASSAY TARGET: T1, MUT-4A (Caenorhabditis elegans, UniProt Q09487 172-535, N318C;H319R)
T1 sequence: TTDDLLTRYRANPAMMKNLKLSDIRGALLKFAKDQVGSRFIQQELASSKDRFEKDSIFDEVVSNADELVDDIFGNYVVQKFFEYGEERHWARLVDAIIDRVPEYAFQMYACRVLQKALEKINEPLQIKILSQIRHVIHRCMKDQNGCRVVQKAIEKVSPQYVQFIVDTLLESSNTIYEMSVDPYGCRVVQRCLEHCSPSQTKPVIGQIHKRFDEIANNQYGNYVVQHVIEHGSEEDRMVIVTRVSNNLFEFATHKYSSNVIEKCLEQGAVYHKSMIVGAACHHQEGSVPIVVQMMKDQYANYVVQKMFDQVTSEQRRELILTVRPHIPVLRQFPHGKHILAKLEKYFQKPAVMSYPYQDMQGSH
ASSAY PROTOCOL: fluorescence polarization
Reminder that pKd is minus the log10 of a molar concentration.

Dear colleague, I am looking for the recorded pKd of the following binder: UGUAGAUA (ssRNA) [PBE-5G FAM]
8.00

Dear colleague, I am looking for the recorded pKd of the following binder: UGUACAUA (ssRNA) [PBE-5C FAM]
9.19

Dear colleague, I am looking for the recorded pKd of the following binder: GGUACAUA (ssRNA) [PBE-1G FAM]
6.80

Dear colleague, I am looking for the recorded pKd of the following binder: UGUAUAUA (ssRNA) [PBE-5U FAM]
8.23

Dear colleague, I am looking for the recorded pKd of the following binder: UGUAAAUA (ssRNA) [PBE-5A FAM]
9.36
